- Experimental Target: IRAK4 (Homo sapiens)
- Construct: Degradation of IRAK4 in OCI-LY10 was quantitatively measured using Meso Scale Discovery technology; endogenous in cells; host or cells: OCI-LY10
- Sequence (Q9NWZ3 whole entry): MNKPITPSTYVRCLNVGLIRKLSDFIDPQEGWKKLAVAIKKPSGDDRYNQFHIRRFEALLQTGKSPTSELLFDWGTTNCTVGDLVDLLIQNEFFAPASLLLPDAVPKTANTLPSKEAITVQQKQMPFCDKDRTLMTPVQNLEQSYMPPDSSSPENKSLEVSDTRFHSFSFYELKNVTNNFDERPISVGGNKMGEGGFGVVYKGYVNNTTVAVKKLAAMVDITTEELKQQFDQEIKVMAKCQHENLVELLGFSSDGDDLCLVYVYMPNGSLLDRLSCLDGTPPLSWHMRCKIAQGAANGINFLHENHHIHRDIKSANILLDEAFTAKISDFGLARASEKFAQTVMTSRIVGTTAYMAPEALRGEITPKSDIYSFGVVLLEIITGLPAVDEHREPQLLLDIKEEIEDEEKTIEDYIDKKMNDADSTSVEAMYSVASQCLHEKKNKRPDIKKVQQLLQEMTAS
- Test Details: IRAK4 MSD Degradation in OCI-LY10
- Type: cell-based
- Settings: OCI-LY10 cells, 4 hrs incubation, MSD; read-out: IRAK4 degradation in OCI-LY10 at 4 hrs: DC50
Each entry below lists one item and its recorded DC50 value.

Consider the following illustrative entries.
# Compound, DC50
rows = [
    ("Cn1c(=O)n(C2CCC(=O)NC2=O)c2cccc(CN3CCN(C[C@H]4CC[C@H](n5cc(NC(=O)c6cnn7ccc(N8CC9C[C@@H]8CO9)nc67)c(C(F)F)n5)CC4)CC3)c21 (some centres unmarked) [I-190]", "10 to 100 nM"),
    ("CN(C[C@H]1CC[C@H](n2cc(NC(=O)c3cnn4ccc(N5CCO[C@@H](C(F)(F)F)C5)nc34)c(C(F)F)n2)CC1)C1CCN(c2cccc3c2n(C)c(=O)n3C2CCC(=O)NC2=O)CC1(F)F (some centres unmarked) [I-537]", "> 200 nM"),
    ("COc1ccc2c(c1C#CCO[C@@H]1CCN(C[C@H]3CC[C@H](n4cc(NC(=O)c5cnn6ccc(N7C[C@H]8C[C@@H]7CO8)nc56)c(C(F)F)n4)CC3)C[C@@H]1F)n(C)c(=O)n2C1CCC(=O)NC1=O (some centres unmarked) [I-1]", "10 to 100 nM"),
    ("Cn1c(=O)n(C2CCC(=O)NC2=O)c2cccc(C3CCN(C[C@H]4CC[C@H](n5cc6cc(NC(=O)c7cccc(C(F)(F)F)n7)ccc6n5)CC4)CC3(F)F)c21 (some centres unmarked) [I-708]", "> 200 nM"),
]

Data request: // query DC50 value for entry C[C@H]1CN(c2ccn3ncc(C(=O)Nc4cn([C@H]5CC[C@H](CN(C)C6CCN(c7cccc8c7n(C)c(=O)n8C7CCC(=O)NC7=O)CC6)CC5)nc4C(F)F)c3n2)CCO1 (some centres unmarked) [I-427]
Data returned: > 200 nM
